- measurementTarget: endogenous ATX/lysoPLD activity in whole blood (Mus musculus)
- Construct: from tissue; host or cells: mouse plasma / whole blood
- assayComment: Inhibition of ATX activity in whole blood ex vivo (TOOS assay)
- Assay type: biochemical
- details: 2 h 37°C, TOOS with 1 mM LPC
measuredProperty: IC50

May I ask what IC50 has been recorded for CCCCCCCCCCCCCCCC(=O)OC[C@@H](O)CC(Br)P(=O)(O)O (stereo partly shown) ? 600 nM

----------
- measurementTarget: recombinant ATX (Homo sapiens, UniProt Q13822)
- Construct: purchased SinoBiological Inc (main data); R&D (additional Km values)
- assayComment: Amplex Red activity assay, LPC hydrolysis by recombinant ATX (Echelon)
- Assay type: biochemical
- details: 14:0 LPC, Cheng-Prusoff from IC50
measuredProperty: pKi
Scale explanation: pKi corresponds to minus log10 of a concentration expressed in moles per litre.

May I ask what pKi has been recorded for CCCCCCCCCCCCCCCC(=O)OC[C@@H](O)CC(Br)P(=O)(O)O (stereo partly shown) ? 6.00
